Record form. Attribute: inhibition at 10 µM. Fill in for each entry.
TARGET: kappa (h) (KOP) (Homo sapiens, UniProt P41145)
Sequence (P41145 whole entry): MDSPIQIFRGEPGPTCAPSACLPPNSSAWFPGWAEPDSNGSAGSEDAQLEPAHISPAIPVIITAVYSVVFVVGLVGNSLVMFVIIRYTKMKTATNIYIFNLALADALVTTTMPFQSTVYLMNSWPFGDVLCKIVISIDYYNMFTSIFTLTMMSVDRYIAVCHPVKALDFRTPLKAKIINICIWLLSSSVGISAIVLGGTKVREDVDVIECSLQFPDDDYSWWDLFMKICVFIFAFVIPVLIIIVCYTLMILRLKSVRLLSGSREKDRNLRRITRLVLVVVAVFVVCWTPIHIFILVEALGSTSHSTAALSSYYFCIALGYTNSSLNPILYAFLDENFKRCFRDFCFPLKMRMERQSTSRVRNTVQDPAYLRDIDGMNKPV
TEST_SUMMARY: kappa (h) (KOP) (agonist radioligand)
EXPERIMENTAL_CONDITIONS: read-out: Inhibition kappa (h) (KOP) (agonist radioligand)
Give the number first and the unit second.

Let me know recorded inhibition at 10 µM for O=C1CO[C@H]2CCN(C(=O)N3CC4(CC(CC5=C6C=CC(c7ccc[nH]7)=[N+]6[B-](F)(F)n6cccc65)C4)C3)C[C@H]2N1 , thanks.
22.7%

Let me know recorded inhibition at 10 µM for O=C(OC(C(F)(F)F)C(F)(F)F)N1CC2(CC(CC3=C4C=CC=[N+]4[B-](F)(F)n4cccc43)C2)C1 , thanks.
5.9%

Let me know recorded inhibition at 10 µM for O=C(N1CC2(CC(CC3=C4C=CC=[N+]4[B-](F)(F)n4cccc43)C2)C1)N1CC2(CC(n3cnc(C4CC4)n3)C2)C1 , thanks.
10.3%

Let me know recorded inhibition at 10 µM for O=C(OC(C(F)(F)F)C(F)(F)F)N1CC2(CC(CC3=C4C=CC(c5ccc[nH]5)=[N+]4[B-](F)(F)n4cccc43)C2)C1 , thanks.
4.9%

Let me know recorded inhibition at 10 µM for O=C(O[C@H](CO)C(F)(F)F)N1CC2(CC(CC3=C4C=CC=[N+]4[B-](F)(F)n4cccc43)C2)C1 , thanks.
7.8%

###

TARGET: mu (MOP) (h) (Homo sapiens)
Sequence (P35372 whole entry): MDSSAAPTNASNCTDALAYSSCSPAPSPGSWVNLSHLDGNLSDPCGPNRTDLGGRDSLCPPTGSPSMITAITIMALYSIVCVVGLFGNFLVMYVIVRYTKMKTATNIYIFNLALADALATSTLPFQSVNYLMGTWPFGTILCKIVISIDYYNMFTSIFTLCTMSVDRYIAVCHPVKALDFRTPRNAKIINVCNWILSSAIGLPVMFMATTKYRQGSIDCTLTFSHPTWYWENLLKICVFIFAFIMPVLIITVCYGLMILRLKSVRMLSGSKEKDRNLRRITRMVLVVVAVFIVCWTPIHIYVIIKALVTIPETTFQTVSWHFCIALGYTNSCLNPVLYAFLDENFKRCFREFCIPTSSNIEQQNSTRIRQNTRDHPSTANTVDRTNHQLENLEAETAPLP
TEST_SUMMARY: mu (MOP) (h) (agonist radioligand)
EXPERIMENTAL_CONDITIONS: read-out: Inhibition mu (MOP) (h) (agonist radioligand)
RECORDED_ENDPOINT: inhibition at 10 µM (%)
Please give a number only; it is taken to be in %.

Let me know recorded inhibition at 10 µM for O=C(N1CC2(CC(CC3=C4C=CC=[N+]4[B-](F)(F)n4cccc43)C2)C1)N1CC2(CC(n3cnc(C4CC4)n3)C2)C1 , thanks.
8.5

Let me know recorded inhibition at 10 µM for O=C1CO[C@H]2CCN(C(=O)N3CC4(CC(CC5=C6C=CC(c7ccc[nH]7)=[N+]6[B-](F)(F)n6cccc65)C4)C3)C[C@H]2N1 , thanks.
11

Let me know recorded inhibition at 10 µM for O=C(OC(C(F)(F)F)C(F)(F)F)N1CC2(CC(CC3=C4C=CC(c5ccc[nH]5)=[N+]4[B-](F)(F)n4cccc43)C2)C1 , thanks.
7.6

Let me know recorded inhibition at 10 µM for O=C(O[C@H](CO)C(F)(F)F)N1CC2(CC(CC3=C4C=CC=[N+]4[B-](F)(F)n4cccc43)C2)C1 , thanks.
4

Let me know recorded inhibition at 10 µM for O=C(OC(C(F)(F)F)C(F)(F)F)N1CC2(CC(CC3=C4C=CC=[N+]4[B-](F)(F)n4cccc43)C2)C1 , thanks.
-0.4

###

TARGET: UniProt P07550
Sequence (P07550 whole entry): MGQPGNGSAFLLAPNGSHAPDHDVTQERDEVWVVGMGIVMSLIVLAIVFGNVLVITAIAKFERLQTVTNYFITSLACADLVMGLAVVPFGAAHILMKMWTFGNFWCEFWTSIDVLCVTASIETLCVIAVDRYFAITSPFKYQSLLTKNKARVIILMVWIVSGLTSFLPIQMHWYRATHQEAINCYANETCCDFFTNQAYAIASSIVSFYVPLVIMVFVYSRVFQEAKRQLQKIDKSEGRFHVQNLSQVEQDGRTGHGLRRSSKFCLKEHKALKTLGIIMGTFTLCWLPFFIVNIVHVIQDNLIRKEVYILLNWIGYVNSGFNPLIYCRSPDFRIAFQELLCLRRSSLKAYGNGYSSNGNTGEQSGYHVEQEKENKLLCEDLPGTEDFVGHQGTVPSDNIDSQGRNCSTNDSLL
TEST_SUMMARY: beta2 (h) (antagonist radioligand)
EXPERIMENTAL_CONDITIONS: read-out: Inhibition beta2 (h) (antagonist radioligand)
Record form. Attribute: inhibition at 10 µM. Fill in for each entry.
Please give a number only; it is taken to be in %.

Let me know recorded inhibition at 10 µM for O=C1CO[C@H]2CCN(C(=O)N3CC4(CC(CC5=C6C=CC(c7ccc[nH]7)=[N+]6[B-](F)(F)n6cccc65)C4)C3)C[C@H]2N1 [Compound 4a] , thanks.
-6.2

Let me know recorded inhibition at 10 µM for O=C(N1CC2(CC(CC3=C4C=CC=[N+]4[B-](F)(F)n4cccc43)C2)C1)N1CC2(CC(n3cnc(C4CC4)n3)C2)C1 [Compound 5] , thanks.
5.4

Let me know recorded inhibition at 10 µM for O=C(OC(C(F)(F)F)C(F)(F)F)N1CC2(CC(CC3=C4C=CC(c5ccc[nH]5)=[N+]4[B-](F)(F)n4cccc43)C2)C1 [Compound 2a] , thanks.
1.8

Let me know recorded inhibition at 10 µM for O=C(OC(C(F)(F)F)C(F)(F)F)N1CC2(CC(CC3=C4C=CC=[N+]4[B-](F)(F)n4cccc43)C2)C1 [Compound 2] , thanks.
-0.6

Let me know recorded inhibition at 10 µM for O=C(O[C@H](CO)C(F)(F)F)N1CC2(CC(CC3=C4C=CC=[N+]4[B-](F)(F)n4cccc43)C2)C1 [Compound 1] , thanks.
-3.1
